// reported pIC50 for each item listed
- System under test: Somatostatin receptor type 5 (Homo sapiens)
- Test name: Displacement of [125I]somatostatin-14 (Tyr11) from human SSTR5 expressed in African green monkey COS1 cell membranes after 2 hrs by scintillation counting method
Where a SMILES comes first, the peptide text is derived from it. Bridges are numbered along the chain shown (N, C = ends). The star is where a group is joined. NH(β-GlcNAc) = CC(=O)N[C@@H]1[C@@H](O)[C@H](O)[C@@H](CO)O[C@H]1N*; Valol = CC(C)[C@@H](CO)N*
Units for pIC50: none; it is -log10 of a concentration expressed in mol/L.

Here are 2 compounds together with their reported answers.
>  <Compound>
CC(=O)N[C@@H]1[C@@H](O)[C@H](O)[C@@H](CO)O[C@H]1NC(=O)C[C@@H]1NC(=O)[C@H](CCCCN)NC(=O)[C@H](Cc2c[nH]c3ccccc23)NC(=O)[C@H](Cc2ccccc2)NC(=O)[C@@H](NC(=O)[C@H](Cc2ccccc2)NC(C)=O)CSSC[C@@H](C(=O)N[C@H](CO)C(C)C)NC1=O (Ac-FCFWKD(NH(β-GlcNAc))C-Valol; disulfide 2-7)

>  <pIC50>
5.28

$$$$
>  <Compound>
Cc1ccc(S[C@H]2O[C@H](CO)[C@@H](O)[C@H](OC/C=C/CN)[C@@H]2NC(=O)Cc2c[nH]c3ccccc23)cc1

>  <pIC50>
5.23

$$$$

Now examine the next entry.
Query: Requested read-out: pIC50. Entry: `NC/C=C/CO[C@H]1[C@H](O)[C@H](OCc2ccccc2)COC/C=C/c2cccc(O)c2C(=O)OC[C@@H]1NC(=O)Cc1c[nH]c2ccccc12`
Response: 5.80

###

- System under test: UniProtKB P31391
- Test name: Displacement of [125I]somatostatin-14 (Tyr11) from human SSTR4 expressed in African green monkey COS1 cell membranes after 2 hrs by scintillation counting method
Where a SMILES comes first, the peptide text is derived from it. Bridges are numbered along the chain shown (N, C = ends). The star is where a group is joined. Valol = CC(C)[C@@H](CO)N*
// reported IC50 for each item listed
Quick reminder: number only, in µM, skip the unit.

Here are 2 compounds together with their reported answers.
>  <Compound>
Cc1ccc(S[C@H]2O[C@H](CO)[C@@H](O)[C@H](OC/C=C/CN)[C@@H]2NC(=O)Cc2c[nH]c3ccccc23)cc1

>  <Result units>
µM

>  <IC50>
2.2

$$$$
>  <Compound>
NCCCCO[C@H]1[C@H](O)[C@H](OCc2ccccc2)COCCCc2cccc(O)c2C(=O)OC[C@@H]1NC(=O)Cc1c[nH]c2ccccc12

>  <Result units>
µM

>  <IC50>
1.2

$$$$

Query: Requested read-out: IC50. Entry: CC(=O)N[C@@H](Cc1ccccc1)C(=O)N[C@H]1CSSC[C@@H](C(=O)N[C@H](CO)C(C)C)NC(=O)[C@H](CC(=O)O)NC(=O)[C@H](CCCCN)NC(=O)[C@H](Cc2c[nH]c3ccccc23)NC(=O)[C@H](Cc2ccccc2)NC1=O (Ac-FCFWKDC-Valol; disulfide 2-7)
Response: 7.4

###

- System under test: Somatostatin receptor type 5 (Homo sapiens, UniProt P35346)
- Sequence (P35346 whole entry): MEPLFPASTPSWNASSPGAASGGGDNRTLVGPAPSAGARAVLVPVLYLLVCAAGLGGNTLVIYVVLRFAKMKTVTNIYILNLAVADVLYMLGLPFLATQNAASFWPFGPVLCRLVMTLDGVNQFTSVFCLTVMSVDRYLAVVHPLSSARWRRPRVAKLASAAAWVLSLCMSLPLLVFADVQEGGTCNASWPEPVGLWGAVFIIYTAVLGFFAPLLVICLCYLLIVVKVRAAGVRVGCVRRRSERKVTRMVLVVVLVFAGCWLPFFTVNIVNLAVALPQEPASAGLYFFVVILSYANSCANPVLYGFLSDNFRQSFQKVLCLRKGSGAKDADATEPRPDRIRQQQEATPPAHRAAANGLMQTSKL
- Test name: Displacement of [125I]somatostatin-14 (Tyr11) from human SSTR5 expressed in African green monkey COS1 cell membranes after 2 hrs by scintillation counting method
Where a SMILES comes first, the peptide text is derived from it. Bridges are numbered along the chain shown (N, C = ends). The star is where a group is joined. Valol = CC(C)[C@@H](CO)N*
Assay metric: IC50 (µM)
Quick reminder: number only, in µM, skip the unit.

>  <Molecule>
Cc1ccc(S[C@H]2O[C@H](CO)[C@@H](O)[C@H](OCCCCN)[C@@H]2NC(=O)Cc2c[nH]c3ccccc23)cc1

>  <IC50 (µM)>
18

$$$$
>  <Molecule>
NCCCCO[C@H]1[C@H](O)[C@H](OCc2ccccc2)COCCCc2cccc(O)c2C(=O)OC[C@@H]1NC(=O)Cc1c[nH]c2ccccc12

>  <IC50 (µM)>
3

$$$$

Query: Requested read-out: IC50. Entry: `CC(C)CCO[C@@H]1[C@@H](O)[C@@H](O)[C@H]2Cn3cc(nn3)COCCCCCCN(CCc3c[nH]c4ccccc34)CC[C@H]1O2`
Response: 6.2

Query: Same question, CC(=O)N[C@@H](Cc1ccccc1)C(=O)N[C@H]1CSSC[C@@H](C(=O)N[C@H](CO)C(C)C)NC(=O)[C@H](CC(=O)O)NC(=O)[C@H](CCCCN)NC(=O)[C@H](Cc2c[nH]c3ccccc23)NC(=O)[C@H](Cc2ccccc2)NC1=O (Ac-FCFWKDC-Valol; disulfide 2-7) this time
Response: 16

###

Where a SMILES comes first, the peptide text is derived from it. Bridges are numbered along the chain shown (N, C = ends). The star is where a group is joined. NH(β-GlcNAc) = CC(=O)N[C@@H]1[C@@H](O)[C@H](O)[C@@H](CO)O[C@H]1N*; Valol = CC(C)[C@@H](CO)N*
The following are reported pKi results, target or system Somatostatin receptor type 4 (Homo sapiens).
Units for pKi: none; it is -log10 of a concentration expressed in mol/L.

>  <Compound>
CC(=O)N[C@@H]1[C@@H](O)[C@H](O)[C@@H](CO)O[C@H]1NC(=O)C[C@@H]1NC(=O)[C@H](CCCCN)NC(=O)[C@H](Cc2c[nH]c3ccccc23)NC(=O)[C@H](Cc2ccccc2)NC(=O)[C@@H](NC(=O)[C@H](Cc2ccccc2)NC(C)=O)CSSC[C@@H](C(=O)N[C@H](CO)C(C)C)NC1=O (Ac-FCFWKD(NH(β-GlcNAc))C-Valol; disulfide 2-7)

>  <pKi>
4.70

$$$$
>  <Compound>
CC(=O)N[C@@H](Cc1ccccc1)C(=O)N[C@H]1CSSC[C@@H](C(=O)N[C@H](CO)C(C)C)NC(=O)[C@H](CC(=O)O)NC(=O)[C@H](CCCCN)NC(=O)[C@H](Cc2c[nH]c3ccccc23)NC(=O)[C@H](Cc2ccccc2)NC1=O (Ac-FCFWKDC-Valol; disulfide 2-7)

>  <pKi>
5.14

$$$$

Query: Requested read-out: pKi. Entry: `NCCCCO[C@H]1[C@H](O)[C@H](OCc2ccccc2)COCCCc2cccc(O)c2C(=O)OC[C@@H]1NC(=O)Cc1c[nH]c2ccccc12`
Response: 5.72

Query: Same question, `CC(=O)O[C@H]1[C@H](OC(C)=O)[C@@H](CCCCCN)N(Cc2cccc3ccccc23)C[C@@H]1OC(C)=O` this time
Response: 5.27

Query: Same question, `NCCCCC[C@@H]1[C@@H](OCc2ccccc2)[C@H](OCc2ccccc2)[C@@H](OCc2ccccc2)CN1Cc1cccc2ccccc12` this time
Response: 5.72

Query: Same question, `Cc1ccc(S[C@H]2O[C@H](CO)[C@@H](O)[C@H](OC/C=C/CN)[C@@H]2NC(=O)Cc2c[nH]c3ccccc23)cc1` this time
Response: 5.68

###

- System under test: UniProtKB P35346
Where a SMILES comes first, the peptide text is derived from it. Bridges are numbered along the chain shown (N, C = ends). The star is where a group is joined. NH(β-GlcNAc) = CC(=O)N[C@@H]1[C@@H](O)[C@H](O)[C@@H](CO)O[C@H]1N*; Valol = CC(C)[C@@H](CO)N*
// reported pKi for each item listed
Units for pKi: none; it is -log10 of a concentration expressed in mol/L.

Here are 4 molecules together with their reported answers.
>  <Molecule>
CC(=O)N[C@@H](Cc1ccccc1)C(=O)N[C@H]1CSSC[C@@H](C(=O)N[C@H](CO)C(C)C)NC(=O)[C@H](CC(=O)O)NC(=O)[C@H](CCCCN)NC(=O)[C@H](Cc2c[nH]c3ccccc23)NC(=O)[C@H](Cc2ccccc2)NC1=O (Ac-FCFWKDC-Valol; disulfide 2-7)

>  <System under test>
UniProtKB P35346

>  <Assay metric>
pKi

>  <Readout number>
5.00

$$$$
>  <Molecule>
CC(C)CCO[C@@H]1[C@@H](O)[C@@H](O)[C@H]2Cn3cc(nn3)COCCCCCCN(CCc3c[nH]c4ccccc34)CC[C@H]1O2

>  <System under test>
UniProtKB P35346

>  <Assay metric>
pKi

>  <Readout number>
5.39

$$$$
>  <Molecule>
NCCCCC[C@@H]1[C@@H](OCc2ccccc2)[C@H](OCc2ccccc2)[C@@H](OCc2ccccc2)CN1Cc1cccc2ccccc12

>  <System under test>
UniProtKB P35346

>  <Assay metric>
pKi

>  <Readout number>
5.89

$$$$
>  <Molecule>
CC(=O)N[C@@H]1[C@@H](O)[C@H](O)[C@@H](CO)O[C@H]1NC(=O)C[C@@H]1NC(=O)[C@H](CCCCN)NC(=O)[C@H](Cc2c[nH]c3ccccc23)NC(=O)[C@H](Cc2ccccc2)NC(=O)[C@@H](NC(=O)[C@H](Cc2ccccc2)NC(C)=O)CSSC[C@@H](C(=O)N[C@H](CO)C(C)C)NC1=O (Ac-FCFWKD(NH(β-GlcNAc))C-Valol; disulfide 2-7)

>  <System under test>
UniProtKB P35346

>  <Assay metric>
pKi

>  <Readout number>
5.47

$$$$

Now examine the next entry.
Query: Requested read-out: pKi. Entry: `Cc1ccc(S[C@H]2O[C@H](CO)[C@@H](O)[C@H](OCCCCN)[C@@H]2NC(=O)Cc2c[nH]c3ccccc23)cc1`
Response: 4.92

Where these numbers come from: ChEMBL document CHEMBL4330062
